TESTED TARGET: recombinant human NRP-1 (human, UniProt O14786-2 22-644, limits assumed)
Construct: Coated on a 96-well plate at 200 ng/well; GenBank AAC51759.1 is printed only as the preferred definition of NRP-1; also called Neuropilin-1
Sequence (looked up): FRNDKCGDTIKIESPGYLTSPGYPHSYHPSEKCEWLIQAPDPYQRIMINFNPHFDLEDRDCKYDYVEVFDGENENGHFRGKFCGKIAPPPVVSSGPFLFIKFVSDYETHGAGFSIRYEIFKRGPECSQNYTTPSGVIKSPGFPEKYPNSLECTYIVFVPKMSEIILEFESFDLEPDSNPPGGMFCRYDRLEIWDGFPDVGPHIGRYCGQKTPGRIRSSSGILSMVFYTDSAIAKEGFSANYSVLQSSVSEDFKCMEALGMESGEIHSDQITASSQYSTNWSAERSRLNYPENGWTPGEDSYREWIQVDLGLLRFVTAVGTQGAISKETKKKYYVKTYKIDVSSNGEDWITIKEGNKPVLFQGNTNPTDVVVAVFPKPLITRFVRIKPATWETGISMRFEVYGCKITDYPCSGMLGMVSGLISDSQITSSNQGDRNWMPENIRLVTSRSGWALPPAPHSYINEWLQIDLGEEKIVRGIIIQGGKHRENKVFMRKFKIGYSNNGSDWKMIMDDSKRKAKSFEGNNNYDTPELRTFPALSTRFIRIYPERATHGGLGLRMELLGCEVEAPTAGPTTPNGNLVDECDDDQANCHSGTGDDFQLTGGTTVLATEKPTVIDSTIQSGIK
ASSAY DETAILS: chemiluminescence competition: inhibition of (bt)-VEGF-A165 binding to coated NRP-1
pIC50: −log10 of the molar value.
OUTCOME MEASURE: pIC50

{"SUBSTANCE": "H-Cys-Lys(hArg)-Dab-Oic-Arg-OH (peptide)", "TESTED TARGET": "recombinant human NRP-1 (human, UniProt O14786-2 22-644, limits assumed)", "RESULT": 7.30}
{"SUBSTANCE": "H-Lys(Cys-hArg)-Dab-Oic-Arg-OH (peptide)", "TESTED TARGET": "recombinant human NRP-1 (human, UniProt O14786-2 22-644, limits assumed)", "RESULT": 7.40}
